src = patent US20070049564A1

Tested on: E. coli
Experiment: Range of MIC for E. coli strains
Details: Escherichia coli, read-out: Range of MIC, E. coli (Water)
Measured Parameter: MIC

molecule="CCCCN(CC(=O)Nc1cc(N(C)C)c2c(c1O)C(=O)C1=C(O)[C@]3(O)C(=O)C(C(N)=O)=C(O)[C@@H](N(C)C)[C@@H]3C[C@@H]1C2)C(=O)OCOC(=O)c1ccc(C(C)(C)C)cc1 [Example 20]" measured_parameter=MIC readout_value="> 64 µg/mL"
molecule="CCCCN(CC(=O)Nc1cc(N(C)C)c2c(c1O)C(=O)C1=C(O)[C@]3(O)C(=O)C(C(N)=O)=C(O)[C@@H](N(C)C)[C@@H]3C[C@@H]1C2)C(=O)OCOC(=O)C(C)(C)C [Example 13]" measured_parameter=MIC readout_value="8 to 16 µg/mL"
molecule="CN(C)c1cc(NC(=O)CN(C(=O)OCOC(=O)c2ccc(C(=O)c3ccccc3)cc2)C(C)(C)C)c(O)c2c1C[C@H]1C[C@H]3[C@H](N(C)C)C(O)=C(C(N)=O)C(=O)[C@@]3(O)C(O)=C1C2=O [Example 107]" measured_parameter=MIC readout_value="0.5 to 1 µg/mL"

Note: attention shifts to another entry.
Input line: Reported MIC for E. coli, given Cc1cc(C)c(C(=O)OCOC(=O)N(CC(=O)Nc2cc(N(C)C)c3c(c2O)C(=O)C2=C(O)[C@]4(O)C(=O)C(C(N)=O)=C(O)[C@@H](N(C)C)[C@@H]4C[C@@H]2C3)C(C)(C)C)c(C)c1 [Example 95] ?
Output line: > 64 µg/mL

---

Listed next: entries and their corresponding MIC.
Tested on: S. aureus GC 1131
Assay: MIC, broth microdilution
Details: Staphylococcus aureus, GC1131, read-out: MINIMAL INHIBITORY CONCENTRATION MIC, pre-incubated in Mouse Serum
Record the value in µg/mL, omitting the unit from your answer.

compound="CN(C)c1cc(NC(=O)CN(C(=O)OCOC(=O)CC(C)(C)C)C(C)(C)C)c(O)c2c1C[C@H]1C[C@H]3[C@H](N(C)C)C(O)=C(C(N)=O)C(=O)[C@@]3(O)C(O)=C1C2=O [Example 42]" readout_value=2

Input line: Reported MIC for S. aureus GC 1131, given CCCCN(CC(=O)Nc1cc(N(C)C)c2c(c1O)C(=O)C1=C(O)[C@]3(O)C(=O)C(C(N)=O)=C(O)[C@@H](N(C)C)[C@@H]3C[C@@H]1C2)C(=O)OCOC(=O)c1cccs1 [Example 23] ?
Output line: 1

Input line: CCCN(CC(=O)Nc1cc(N(C)C)c2c(c1O)C(=O)C1=C(O)[C@]3(O)C(=O)C(C(N)=O)=C(O)[C@@H](N(C)C)[C@@H]3C[C@@H]1C2)C(=O)OCOC(=O)c1ccsc1 [Example 27] ?
Output line: 0.12

---

Listed next: entries and their corresponding MIC.
Test system: P. aeruginosa GC 2214
Assay: MIC, broth microdilution
Conditions: Pseudomonas aeruginosa, GC2214, read-out: MINIMAL INHIBITORY CONCENTRATION MIC, pre-incubated in Mouse Serum
Put your answer as a value accompanied by its unit after it.

smiles_notation=Cc1ccc(C(=O)OCOC(=O)N(CC(=O)Nc2cc(N(C)C)c3c(c2O)C(=O)C2=C(O)[C@]4(O)C(=O)C(C(N)=O)=C(O)[C@@H](N(C)C)[C@@H]4C[C@@H]2C3)C(C)(C)C)cc1 measured_parameter=MIC readout_value="32 mg/L"
smiles_notation=CN(C)c1cc(NC(=O)CN(C(=O)OCOC(=O)C2CCCC2)C(C)(C)C)c(O)c2c1C[C@H]1C[C@H]3[C@H](N(C)C)C(O)=C(C(N)=O)C(=O)[C@@]3(O)C(O)=C1C2=O measured_parameter=MIC readout_value="16 mg/L"
smiles_notation=CC(C)C(=O)OCOC(=O)N(CC(=O)Nc1cc(N(C)C)c2c(c1O)C(=O)C1=C(O)[C@]3(O)C(=O)C(C(N)=O)=C(O)[C@@H](N(C)C)[C@@H]3C[C@@H]1C2)C(C)(C)C measured_parameter=MIC readout_value="16 mg/L"

Note: attention shifts to another entry.
Input line: // query MIC value for entry `CCCN(CC(=O)Nc1cc(N(C)C)c2c(c1O)C(=O)C1=C(O)[C@]3(O)C(=O)C(C(N)=O)=C(O)[C@@H](N(C)C)[C@@H]3C[C@@H]1C2)C(=O)OCOC(=O)c1cccs1`
Output line: 32 mg/L
